- assay.text: Mouse blood and tissue PK (LC/MS-MS)
- Type: in vivo
- study.conditions: mouse, tumor, oral, 10 mg/kg, NCI-H441 xenograft tumor, study NCI-H441#10, 10 mg/kg, 8h; read-out: RMC-6236 (nM) Tumor
metric.name: concentration at 8 h (nM)

CCn1c(-c2cc(N3CCN(C)CC3)cnc2[C@H](C)OC)c2c3cc(ccc31)-c1csc(n1)C[C@H](NC(=O)[C@H]1C[C@@H]1C)C(=O)N1CCC[C@H](N1)C(=O)OCC(C)(C)C2 [RMC-6236]
685

###

- assay.text: Mouse blood and tissue PK (LC/MS-MS)
- Assay type: in vivo
- study.conditions: BALB/c nude, mouse, tumor, oral, 100 mg/kg, Capan-2, study Capan-2 #3_PHA 2023, 100 mg/kg, 24h; read-out: RMC-6236 (nM) Tumor
metric.name: concentration at 24 h (nM)

CCn1c(-c2cc(N3CCN(C)CC3)cnc2[C@H](C)OC)c2c3cc(ccc31)-c1csc(n1)C[C@H](NC(=O)[C@H]1C[C@@H]1C)C(=O)N1CCC[C@H](N1)C(=O)OCC(C)(C)C2
4270
